Reference source: patent US20210380703A1

- Assayed Target: T1, Human ACVR2A (human, UniProt P27037 20-135, limits assumed); note: test concentration or dose not given here
- T1 construct: also called activin receptor, type II A
- T1 sequence (P27037 20-135 limits assumed): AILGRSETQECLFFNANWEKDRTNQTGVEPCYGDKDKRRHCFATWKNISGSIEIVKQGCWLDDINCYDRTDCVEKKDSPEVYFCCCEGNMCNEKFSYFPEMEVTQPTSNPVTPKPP
- Procedure Details: ELISA
Hi there, I'd appreciate the recorded optical density for every entry that follows.
Report as a plain number; the unit OD is understood.

Given item 370_F10 (antibody, V domains shown) VH: EVQLLESGGGLVQPGGSLRLSCAASGFTFSSYSMNWVRQAPGKGLEWVAGINYNGGYTSYADSVKGRFTISRDNSKNTLYLQMNSLRAEDTAVYYCARSANWHDTALDYWGQGTLVTVSS VL: DIQMTQSPSSLSASVGDRVTITCRASQSIVSYLNWYQQKPGKAPKLVIYAATSRASGVPSRFSGSGSGTDFTLTISSLQPEDFATYYCQQSYNSPLTFGGGTKVEIK , the value recorded as its optical density is 3.15

Given item 368_E04 (antibody, V domains shown) VH: EVQLLESGGGLVQPGGSLRLSCAASGFTFSSYSMNWVRQAPGKGLEWVANINYNSGYTGYADSVKGRFTISRDNSKNTLYLQMNSLRAEDTAVYYCARSANWHDTALDYWGQGTLVTVSS VL: DIQMTQSPSSLSASVGDRVTITCRASQSILSYVNWYQQKPGKAPKLLIYAATSRHSGVPSRFSGSGSGTDFTLTISSLQPEDFATYYCQQSYDNPLTFGGGTKVEIK , the value recorded as its optical density is 3.08

Given item 367_F07 (antibody, V domains shown) VH: EVQLLESGGGLVQPGGSLRLSCAASGFTFDSYGMHWVRQAPGKGLEWVANINYNGGYTGYADSVKGRFTISRDNSKNTLYLQMNSLRAEDTAVYYCARSANWHDTALDYWGQGTLVTVSS VL: DIQMTQSPSSLSASVGDRVTITCRASQSIISYVNWYQQKPGKAPKLLIYAATSRASGVPSRFSGSGSGTDFTLTISSLQPEDFATYYCQQSYETPLTFGGGTKVEIK , the value recorded as its optical density is 2.13

Given item 368_A05 (antibody, V domains shown) VH: EVQLLESGGGLVQPGGSLRLSCAASGFTFSSYSMNWVRQAPGKGLEWVAGINYNSGYTGYADSVKGRFTISRDNSKNTLYLQMNSLRAEDTAVYYCARSANWHDTALDYWGQGTLVTVSS VL: DIQMTQSPSSLSASVGDRVTITCRASQSIVSYLNWYQQKPGKAPKLVIYAATSRASGVPSRFSGSGSGTDFTLTISSLQPEDFATYYCQQSYDSPLTFGGGTKVEIK , the value recorded as its optical density is 2.71

Given item 367_D10 (antibody, V domains shown) VH: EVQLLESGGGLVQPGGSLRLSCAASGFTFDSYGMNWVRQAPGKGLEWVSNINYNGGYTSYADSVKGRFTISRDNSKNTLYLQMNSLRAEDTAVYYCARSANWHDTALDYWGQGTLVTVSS VL: DIQMTQSPSSLSASVGDRVTITCRASQSIISYLNWYQQKPGKAPKLVIYAATSRASGVPSRFSGSGSGTDFTLTISSLQPEDFATYYCQQSYDTPLTFGGGTKVEIK , the value recorded as its optical density is 2.7
